Reference source: the supplement of paper PMC10567573

Catalogue of protein stability index readings, one per entry.
B1: SFRS1 (parent)
chain: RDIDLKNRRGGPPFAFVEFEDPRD

# Variants of: B1
# test.name: protein stability index of a GFP-peptide fusion (GPS, HEK-293T) (PSI 1-6); higher = more stable;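 also: lentivirally expressed fusions sorted by FACS into six bins by GFP to DsRed ratio, PSI derived from sequencing read proportions per bin multiplied by bin number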
# experimental.parameters: c terminus: a fixed tail appended
value.type: protein stability index

variant.description	value.type	recorded.number
L5Q	protein stability index	4.13
A15Y	protein stability index	3.56
F19R	protein stability index	3.38
